Sourced from paper PMC5540273

Below, each entry is listed with its recorded %Inh.
System: PHKG1;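 note: KINOMEscan kinase panel screen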
ASSAY CONTEXT: concentration: 1 μM, replicates: in singlicate; n = 1
Remember to quote the unit after the number.

Incoming: Recorded %Inh for "CN1CCN(Cc2cccc(-c3ccc4c(Nc5ccc(Oc6ccccc6)cc5)ccnc4c3)c2)CC1" with PHKG1, please?
Outgoing: 1%

Incoming: Would you kindly repeat that for COc1ccc(Nc2nccc(N3CCC(NC(=O)Nc4cccc(OC)c4)C3)n2)cc1 (stereo not drawn) ?
Outgoing: 17%

Incoming: Would you kindly repeat that for "Nc1ncc(-c2cccnc2)c2scc(-c3ccc4c(c3)CCN4C(=O)Cc3ccccc3)c12" ?
Outgoing: 18%

Incoming: Would you kindly repeat that for "CC(=O)Nc1nc2cnc(Nc3cc(NC(=O)c4cccc(C5(C#N)CC5)c4Cl)ccc3C)nc2s1" ?
Outgoing: 12%

Incoming: Would you kindly repeat that for COc1cccc(NC(=O)NC2CCN(c3ccnc(Nc4cc(OC)c(OC)c(OC)c4)n3)C2)c1 (stereo not drawn) ?
Outgoing: 0%

Incoming: Would you kindly repeat that for "FC(F)(F)c1ccc(/C=C/c2cncnc2Nc2ccc3[nH]c(Cc4ccccc4)nc3c2)cc1" ?
Outgoing: 43%
